# protocol: in vitro
# run parameters: rat, plasma
Numbered stars: 1 amine (or outer) side, 2 acyl side, 3 side chain; on linkers, the order of the positions; unused ones are H or OH. Bridge positions count the residues as written; N and C are the ends. Square brackets hold non-standard residues; d marks the D form. Peptide text beside a SMILES is read from it. ξ: configuration not given here. ξhAlg = O=C(C(CCC=[*:3])N[*:1])[*:2]; AllylGly = C=CC[CH](N)C(=O)O
Documented remaining at 0.5 h, 1 μM across a set of molecules

- molecule: "CC(C)CC(NC(=O)CN)C(=O)N(C)C(Cc1ccc(O)cc1)C(=O)NC(Cc1ccc(O)cc1)C(=O)NC(Cc1ccccc1)C(N)=O (stereo not shown)"
  measurement qualifier: "="
  remaining at 0.5 h, 1 μM (%): 70.9
- molecule: "CC(=O)NC(CC(=O)O)C(=O)NC(Cc1ccc(O)cc1)C(=O)NC(Cc1ccc(O)cc1)C(=O)NC(Cc1ccccc1)C(=O)O (stereo not shown) [DS-28, AcNH-DYYF-OH] (Ac-DYYF-OH; configuration not given here)"
  measurement qualifier: ">"
  remaining at 0.5 h, 1 μM (%): 100
- molecule: "NCCCCC(NC(=O)C(Cc1ccc(O)cc1)NC(=O)C(Cc1ccc(O)cc1)NC(=O)C(CC(=O)O)NC(=O)CN)C(N)=O (stereo not shown) [DS-35, NH2-GDYYK-NH2] (H-GDYYK-NH2; configuration not given here)"
  measurement qualifier: "="
  remaining at 0.5 h, 1 μM (%): 99.4
- molecule: "CC(C)CC1NC(=O)C(N)CC/C=C\\CC(C(N)=O)NC(=O)C(Cc2ccc(O)cc2)NC(=O)C(Cc2ccc(O)cc2)NC1=O (stereo not shown) [DS-73] (H-[ξhAlg]LYY[AllylGly]-NH2; staple (Z) 1-5; configuration not given here)"
  measurement qualifier: ">"
  remaining at 0.5 h, 1 μM (%): 100
